System: GH3-TRE-Luc cell line
condition: read-out: AC50 (uM) modified / 1000; Tox21_110001=Tox21_300867; viability, 1 nM T3 present, 24 h
readout.kind: CC50

Problem: Requested field: CC50. Item: `CCC(CC)Nc1c([N+](=O)[O-])cc(C)c(C)c1[N+](=O)[O-]`
Result: > 90 µM

###

assay: in vitro
condition: rat, gh3-tre-luc cells, AC50 (uM) modified / 1000, Tox21_110001=Tox21_112447; viability, 1 nM T3 present, 24 h
readout.kind: CC50 at 24 h

Problem: Looking for the measured CC50 at 24 h of `Cc1ccccc1-n1c(CF)nc2ccc(N)cc2c1=O` , can you help?
Result: > 50 µM

###

System: GH3-TRE-Luc cell line
condition: read-out: AC50 (uM) modified / 1000; Tox21_110001=Tox21_200592; viability, 1 nM T3 present, 24 h
readout.kind: CC50 (µM)
Respond with the bare value in µM.

Problem: Reported CC50, molecule `CCCCCCCCCCn1cc[n+](C)c1` : ____
Result: 13.1

###

assay: in vitro
condition: rat, gh3-tre-luc cells, AC50 (uM) modified / 1000
Could you please report measured CC50 at 24 h for the items listed next?
Respond numerically; units are µM and should not be typed.

Problem: Looking for the measured CC50 at 24 h of `NC12CC3CC(CC(C3)C1)C2` , can you help?
Result: 36.1

Problem: Which measured CC50 at 24 h value corresponds to `CO[C@H](C(=O)[C@@H](O)[C@@H](C)O)[C@@H]1Cc2cc3cc(O[C@H]4C[C@@H](O[C@H]5C[C@@H](O)[C@H](O)[C@@H](C)O5)[C@H](O)[C@@H](C)O4)c(C)c(O)c3c(O)c2C(=O)[C@H]1O[C@H]1C[C@@H](O[C@H]2C[C@@H](O[C@H]3C[C@](C)(O)[C@H](O)[C@@H](C)O3)[C@@H](O)[C@@H](C)O2)[C@H](O)[C@@H](C)O1` ?
Result: 0.413

Problem: Record request: CC50 at 24 h value, item `CC(C)(c1ccccc1)c1ccc(O)cc1`
Result: 45.2

###

assay: in vitro
condition: rat, gh3-tre-luc cells, AC50 (uM) modified / 1000
Counter-ions that a name gives are not always drawn. Starred links: 1 amine or outer side, 2 acyl side, 3 side chain; linkers in the order of their positions; H or OH if unused. Positions of bridges follow the written chain, without caps; N, C: chain ends. Non-standard residues stand in square brackets, D forms with d. Residues, ends and D or L forms follow the SMILES beside them. *: point of attachment. X1 = NC1=N[C@@H]([C@H](N[*:1])C(=O)[*:2])C[C@H](O)N1; ΔAla(Z-3-ureido) = NC(=O)N/C=C(\N)C(=O)O; β3hOrn = NCCC[C@H](N)CC(=O)*; Dap = NC[C@H](N)C(=O)O
readout.kind: CC50 at 24 h

Problem: For `C[C@H]1O[C@@H](n2cc(F)c(=O)[nH]c2=O)[C@H](O)[C@@H]1O` , what is its reported CC50 at 24 h?
Result: > 50 µM

Problem: # input compound: `Cc1cc(-c2ccc(/N=N/c3c(S(=O)(=O)O)cc4cc(S(=O)(=O)O)cc(N)c4c3O)c(C)c2)ccc1/N=N/c1c(S(=O)(=O)O)cc2cc(S(=O)(=O)O)cc(N)c2c1O` ; wanted: its CC50 at 24 h
Result: 22.8 µM

Problem: Could you share which CC50 at 24 h value was measured for `O=C[C@H](O)[C@H]1OC(=O)[C@@H](O)[C@H]1O` ?
Result: > 90 µM

Problem: Which value of CC50 at 24 h has been reported for `Cc1ccc(Cl)cc1` in the records?
Result: > 100 µM

Problem: Could you share which CC50 at 24 h value was measured for `C[C@H]1[C@H](O)O[C@@H]2O[C@@]3(C)CC[C@H]4[C@H](C)CC[C@@H]1[C@@]24OO3` ?
Result: 1.39 µM

Problem: # CC50 at 24 h lookup, item `CO[C@@H]1COCC[C@@H]1N[C@@H]1CC[C@@](C(=O)N2CCc3ncc(C(F)(F)F)cc3C2)(C(C)C)C1`
Result: > 90 µM

Problem: Form field: reported CC50 at 24 h of `COc1ccc2c(c1)c(CC(=O)OCC(=O)O)c(C)n2C(=O)c1ccc(Cl)cc1`
Result: > 50 µM

Problem: Fill in the blank: the reported CC50 at 24 h of `CCc1nccnc1C` is ____.
Result: > 90 µM

Problem: // query CC50 at 24 h value for entry `C=C(C)c1cccc(C(=C)C)c1`
Result: > 90 µM

Problem: Suppose we examine the compound `Clc1c(Cl)c(Cl)c(Cl)c(Cl)c1Cl` ; what CC50 at 24 h value has been reported?
Result: > 5 µM

Problem: Recorded CC50 at 24 h of `Cc1ccccc1S` , please.
Result: > 70 µM

Problem: Can you look up the measured CC50 at 24 h of CCC(=O)O[C@]1(C(=O)CCl)[C@@H](C)C[C@H]2[C@@H]3C[C@H](F)C4=CC(=O)C=C[C@]4(C)[C@@]3(F)[C@@H](O)C[C@@]21C [Halobetasol propionate] for me?
Result: > 50 µM

Problem: Requested read-out: CC50 at 24 h. Entry: CCOC(=O)C(=O)OCC [Diethyl oxalate]
Result: > 90 µM

Problem: Given the compound `Cc1cc(C(=C2C=CC(=Nc3ccc(S(=O)(=O)O)cc3)C=C2)c2ccc(Nc3ccc(S(=O)(=O)O)cc3)cc2)cc(S(=O)(=O)O)c1N` , what is its reported CC50 at 24 h?
Result: > 60 µM

Problem: Field request: CC50 at 24 h | item: NCCC[C@H](N)CC(=O)N[C@H]1CNC(=O)[C@H]([C@H]2C[C@H](O)NC(N)=N2)NC(=O)/C(=C/NC(N)=O)NC(=O)[C@H](CO)NC(=O)[C@H](CO)NC1=O [Viomycin sulfate] (β3hOrn-[Dap]SS[ΔAla(Z-3-ureido)][X1]; lactam 1-C)
Result: > 50 µM

###

assay: in vitro
condition: rat, gh3-tre-luc cells, AC50 (uM) modified / 1000, Tox21_110001=Tox21_302216; viability, 1 nM T3 present, 24 h
readout.kind: CC50 at 24 h

Problem: Which CC50 at 24 h value is on record for `CCOC(=O)COc1ccc(Cl)cc1Cl` ?
Result: > 90 µM

###

assay: in vitro
condition: rat, gh3-tre-luc cells, AC50 (uM) modified / 1000, Tox21_110001=Tox21_202217; viability, 1 nM T3 present, 24 h
readout.kind: CC50 at 24 h

Problem: Suppose we examine the compound `CC[N+](=O)[O-]` ; what CC50 at 24 h value has been reported?
Result: > 90 µM

###

Tested on: GH3-TRE-Luc cell line
condition: read-out: AC50 (uM) modified / 1000; Tox21_110001=Tox21_302201; viability, 1 nM T3 present, 24 h
readout.kind: CC50 (µM)
Just the number please, in µM, no unit attached.

Problem: Name the recorded CC50 for COc1cc([C@@H]2c3cc4c(cc3[C@@H](O[C@@H]3O[C@@H]5CO[C@@H](C)O[C@H]5[C@H](O)[C@H]3O)[C@H]3COC(=O)[C@H]23)OCO4)cc(OC)c1O [Etoposide] .
Result: 2.85

###

assay: in vitro
condition: rat, gh3-tre-luc cells, AC50 (uM) modified / 1000
Where a name gives a salt, the structure may show the parent alone.
What CC50 at 24 h was measured for each of the following?

Problem: # lookup: CC50 at 24 h of CC(=O)Oc1cc(C)c(OC(C)=O)c2ccccc12 [Acetomenaphthone]
Result: 19.7 µM

Problem: Need CC50 at 24 h, item CC(C)(C)NCC(O)COc1ccc(NC(=O)NC2CCCCC2)cc1 (centres unmarked) [Talinolol]
Result: > 50 µM

Problem: Entry CCN1CCCC1CNC(=O)c1cc(S(N)(=O)=O)ccc1OC (centres unmarked) [Sulpiride] has what CC50 at 24 h?
Result: > 90 µM

Problem: Recorded CC50 at 24 h of NC=O [Formamide] , please.
Result: > 100 µM

Problem: Please report the recorded CC50 at 24 h for CN(C)c1ccc(SC#N)cc1 [4-(Dimethylamino)phenylthiocyanate] .
Result: > 90 µM

Problem: I would be grateful if you could share the reported CC50 at 24 h for COC(=O)C(C)N(C(=O)c1ccco1)c1c(C)cccc1C (centres unmarked) [Furalaxyl] .
Result: > 90 µM

Problem: // query CC50 at 24 h value for entry C[C@@]12CCC[C@H]1[C@@H]1CC[C@H]3C[C@@H](O)CC[C@]3(C)[C@H]1CC2 [5alpha-Androstan-3beta-ol]
Result: > 50 µM

Problem: So what does the record say about CC50 at 24 h for Oc1ncnc2[nH]ncc12 [Allopurinol] ?
Result: > 90 µM

Problem: Look at this compound and give its reported CC50 at 24 h. CC(C)c1cccc(C(C)C)c1N1C(=O)c2ccc(O)cc2C1=O [5HPP-33]
Result: > 90 µM

Problem: # get_value(readout='CC50 at 24 h', item= N=C(N)N1CCc2ccccc2C1 [Debrisoquin sulfate] )
Result: > 50 µM

Problem: Data request, read-out CC50 at 24 h, for O=Nc1ccc(NO)cc1 [p-Benzoquinone dioxime]
Result: > 100 µM
